target: UniProt:Q00987; experiment: Competitive fluorescence polarization assay for MDM2; type: binding; details: competitive FP assay, MDM2; read-out: IC50 (MDM2)
Sequence (Q00987 1-125): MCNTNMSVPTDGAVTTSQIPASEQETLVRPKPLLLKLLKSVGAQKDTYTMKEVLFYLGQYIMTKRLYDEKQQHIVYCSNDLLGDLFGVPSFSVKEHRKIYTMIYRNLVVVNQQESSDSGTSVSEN
pIC50: −log10 of the molar value. Where a SMILES comes first, the peptide text is derived from it. Bridges are numbered along the chain shown (N, C = ends). [ ]: non-standard residue; d: D form. R8 = C=CCCCCCC[C@@](C)(N)C(=O)O; S5 = C=CCCC[C@](C)(N)C(=O)O; Nle = CCCC[C@H](N)C(=O)O
Answer each item with its documented pIC50.

Example cases with answers are listed next.
>>> measuredresult("CC(=O)N[C@@H](C)C(=O)N[C@@H](CC(C)C)C(=O)N[C@H](C(=O)N[C@@H](Cc1ccccc1)C(=O)N[C@]1(C)CCCCCCC=CCCC[C@@](C)(C(=O)N[C@@H](CO)C(=O)N[C@@H](C)C(=O)N[C@@H](C)C(=O)N[C@@H](C)C(N)=O)NC(=O)[C@H](CC2CCC2)NC(=O)[C@H](CCC(N)=O)NC(=O)[C@H](C)NC(=O)[C@H](Cc2c[nH]c3ccccc23)NC(=O)[C@H](Cc2ccc(O)cc2)NC(=O)[C@H](CCC(=O)O)NC1=O)[C@@H](C)O")
"7.00 to 8.00"
>>> measuredresult("CCCC[C@H](NC(=O)[C@H](C)NC(=O)[C@H](CO)NC(=O)[C@]1(C)CCCC=CCCCCCC[C@@](C)(NC(=O)[C@H](Cc2ccccc2)NC(=O)[C@@H](NC(=O)[C@H](CC(C)C)NC(C)=O)[C@@H](C)O)C(=O)N[C@@H](C)C(=O)N[C@@H](Cc2ccc(O)cc2)C(=O)N[C@@H](Cc2c[nH]c3ccccc23)C(=O)N[C@@H](C)C(=O)N[C@@H](CCC(N)=O)C(=O)N[C@@H](CC(C)C)C(=O)N1)C(N)=O [compound 3] (Ac-LTF[R8]AYWAQL[S5]SA[Nle]-NH2; staple 4-11)")
"6.00 to 7.00"
>>> measuredresult("CC(=O)N[C@@H](C)C(=O)N[C@@H](CC(C)C)C(=O)N[C@H](C(=O)N[C@@H](Cc1ccccc1)C(=O)N[C@]1(C)CCCCCCC=CCCC[C@@](C)(C(=O)N[C@@H](CO)C(=O)N[C@@H](C)C(=O)N[C@@H](C)C(=O)N[C@@H](C)C(=O)N[C@H](C)C(N)=O)NC(=O)[C@H](CC2CCC2)NC(=O)[C@H](CCC(N)=O)NC(=O)[C@H](C)NC(=O)[C@H](Cc2c[nH]c3ccccc23)NC(=O)[C@H](Cc2ccc(O)cc2)NC(=O)[C@H](CCC(=O)O)NC1=O)[C@@H](C)O (single isomer, unassigned)")
"> 8.00"

I would be grateful if you could share the reported pIC50 for CCCC[C@H](NC(=O)[C@H](Cc1c[nH]c2ccccc12)NC(=O)[C@H](C)NC(=O)[C@]1(C)CCCC=CCCCCCC[C@@](C)(NC(=O)[C@H](Cc2ccccc2)NC(=O)[C@@H](NC(=O)[C@H](CCC(=O)O)NC(C)=O)[C@@H](C)O)C(=O)N[C@@H](CCC(=O)O)C(=O)N[C@@H](Cc2ccc(O)cc2)C(=O)N[C@@H](Cc2c[nH]c3ccccc23)C(=O)N[C@@H](C)C(=O)N[C@@H](CCC(N)=O)C(=O)N[C@@H](CC(C)C)C(=O)N1)C(=O)N[C@H](C)C(N)=O [compound 278] (Ac-ETF[R8]EYWAQL[S5]AW[Nle][dA]-NH2; staple 4-11) .
7.00 to 8.00
